Where do the numbers come from? From ChEMBL document CHEMBL1133902.

So I've got a bunch of compounds here, and I need their inhibition at 12.5 µg/mL values.
# Tested on: Mycobacterium tuberculosis
# measurement_description: Antituberculosis activity against Mycobacterium tuberculosis at a concentration of 12.5 ug/mL
# Format: functional
One number for each entry, in %.

The following compounds have reported results that may help.
{"compound": "CC(=O)Oc1ccc(C2CC(=O)c3c(cc(OC(C)=O)c(-c4c(OC(C)=O)cc(OC(C)=O)c5c4OC(c4ccc(OC(C)=O)cc4)CC5=O)c3OC(C)=O)O2)cc1 (configuration not stated)", "unit_name": "%", "inhibition at 12.5 µg/mL": 0}
{"compound": "COc1ccc(C2CC(=O)c3c(cc(OC)c(-c4c(OC)cc5c(c4OC)C(=O)CC(c4ccc(OC)cc4)O5)c3OC)O2)cc1 (configuration not stated)", "unit_name": "%", "inhibition at 12.5 µg/mL": 2}
{"compound": "O=c1cc(-c2ccc(O)c(-c3c(O)cc4oc(-c5ccc(O)cc5)cc(=O)c4c3O)c2)oc2cc(O)cc(O)c12", "unit_name": "%", "inhibition at 12.5 µg/mL": 0}
{"compound": "O=c1cc(-c2cccc(-c3ccc4c(=O)cc(-c5ccccc5)oc4c3)c2)oc2ccccc12", "unit_name": "%", "inhibition at 12.5 µg/mL": 0}
{"compound": "O=c1cc(-c2ccccc2)oc2ccc(-c3ccccc3-c3cc(=O)c4ccccc4o3)cc12", "unit_name": "%", "inhibition at 12.5 µg/mL": 9}

Would you mind giving inhibition at 12.5 µg/mL for every compound in the list below?
1. O=C1c2c(O)cc(O)cc2OC(c2ccc(O)cc2)C1c1c(O[C@]2(O)O[C@H](CO)[C@@H](O)C(O)[C@H]2O)cc(O)c2c(=O)cc(-c3ccc(O)cc3)oc12 (single isomer, unassigned)
2. COc1ccc2c(c1)OC(c1ccccc1)C(C1C(=O)c3ccc(OC)cc3OC1c1ccccc1)C2=O (configuration not stated)

*A*
1. 0
2. 0
